pIC50: −log10 of the molar value.
# pIC50 measurements, system: E. coli LpxC (Escherichia coli, UniProt P0A725)
# Sequence (P0A725 whole entry): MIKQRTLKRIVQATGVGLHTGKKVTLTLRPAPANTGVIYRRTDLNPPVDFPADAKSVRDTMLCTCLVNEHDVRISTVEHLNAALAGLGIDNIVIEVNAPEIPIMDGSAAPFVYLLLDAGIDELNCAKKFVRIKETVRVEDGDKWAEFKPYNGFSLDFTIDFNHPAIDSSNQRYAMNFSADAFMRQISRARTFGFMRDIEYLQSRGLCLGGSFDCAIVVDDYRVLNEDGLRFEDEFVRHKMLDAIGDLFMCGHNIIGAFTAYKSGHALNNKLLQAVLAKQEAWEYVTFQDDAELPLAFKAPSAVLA
REPORTED ENDPOINT: pIC50

[
  {
    "COMPOUND": "C[C@H](O)c1nccn1C/C=C/c1ccc(-c2ccc(OC[C@H](N)CO)cc2)cc1 [Compound 3]",
    "REPORTED ENDPOINT": "pIC50",
    "MEASURED NUMBER": 7.94
  },
  {
    "COMPOUND": "C[C@H](O)c1nccn1C/C=C/c1ccc(-c2ccc(O[C@@H]3C[C@H]3N)cc2)cc1 (racemic) [Compound 4]",
    "REPORTED ENDPOINT": "pIC50",
    "MEASURED NUMBER": 8.03
  },
  {
    "COMPOUND": "C[C@H](O)c1nccn1[C@@H](/C=C/c1ccc(-c2ccc(O[C@H]3C[C@@H]3N)cc2)cc1)CO (single isomer, unassigned) [Compound 14]",
    "REPORTED ENDPOINT": "pIC50",
    "MEASURED NUMBER": 8.02
  },
  {
    "COMPOUND": "C[C@H](O)c1nccn1[C@@H](/C=C/c1ccc(-c2ccc(OC[C@H](O)CN)cc2)cc1)CO [Compound 29]",
    "REPORTED ENDPOINT": "pIC50",
    "MEASURED NUMBER": 8.23
  },
  {
    "COMPOUND": "C[C@H](O)c1nccn1C/C=C/c1ccc(-c2ccc(OC3CCN(CC(O)CO)CC3)cc2)cc1 (some centres unmarked) [Compound 2]",
    "REPORTED ENDPOINT": "pIC50",
    "MEASURED NUMBER": 7.77
  }
]
